Biological target: Retinoic acid receptor RXR-alpha (Homo sapiens) (UniProt P19793)
Sequence (P19793 whole entry, looked up): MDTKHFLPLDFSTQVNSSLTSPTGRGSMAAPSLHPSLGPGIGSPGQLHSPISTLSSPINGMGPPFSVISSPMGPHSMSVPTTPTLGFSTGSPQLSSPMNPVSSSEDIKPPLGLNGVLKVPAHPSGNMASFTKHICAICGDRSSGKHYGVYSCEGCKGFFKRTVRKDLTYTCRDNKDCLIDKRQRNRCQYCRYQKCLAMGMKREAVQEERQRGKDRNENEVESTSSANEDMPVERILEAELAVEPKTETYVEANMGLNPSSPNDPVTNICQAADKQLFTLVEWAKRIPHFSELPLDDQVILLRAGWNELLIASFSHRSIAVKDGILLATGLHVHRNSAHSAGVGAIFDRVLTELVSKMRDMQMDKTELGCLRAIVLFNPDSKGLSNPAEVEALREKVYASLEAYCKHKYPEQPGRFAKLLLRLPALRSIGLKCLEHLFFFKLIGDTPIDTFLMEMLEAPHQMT
Test: qHTS assay for small molecule agonists of retinoid X receptor alpha signaling (AID 588544);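 further: 0% = DMSO basal wells and 100% = reference agonist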
Details: HEK293T RXRa-UAS-bla, beta-lactamase reporter, 18 h; series mostly up to 76.7 µM
Results filed as inconclusive are left out. Activity calls are given as the source filed them. The call rests on the fitted dose curve.

[
  {
    "compound": "CC(C)C(=O)OCC(C)(C)C(O)C(C)C (stereo not drawn)",
    "outcome": "inactive"
  },
  {
    "compound": "c1ccc2c(c1)ccc1c3ccccc3ccc21",
    "outcome": "inactive"
  },
  {
    "compound": "C=C(C)C(=O)OCCOCCOCCOC(=O)C(=C)C",
    "outcome": "inactive"
  }
]

----------
Target: Cytochrome P450 3A4 (Homo sapiens)
Experiment: qHTS Assay for Activators of Cytochrome P450 3A4 (AID 885); further: nearly all actives have a fitted effect of over 65% in size
Conditions: recombinant CYP3A4, Luciferin-PPXE luminescence, 60 min; series mostly up to 57.1 µM
Activity calls are given as the source filed them. The call rests on the fitted dose curve; in most records, active means well fitted activation curve with a large enough effect; inconclusive means small, poorly fitted or top-dose-only effect; inactive means no such curve, though single readings can be large or run the other way.
measuredQuantity: activity change, positive = activation

[
  {
    "compound": "O=c1cc(-c2cccc(O)c2)oc2cccc(O)c12",
    "measuredQuantity": "activity change, positive = activation",
    "reportedResult": "inactive"
  },
  {
    "compound": "CN(C)C(=O)[C@]1(C)C[C@H]1[C@H](NC(=O)CNC(=O)[C@@H]1CCCN1C(=O)[C@]1(C)C[C@H]1[C@H](NC(=O)OCc1ccccc1)c1ccccc1)c1ccccc1",
    "measuredQuantity": "activity change, positive = activation",
    "reportedResult": "inactive"
  },
  {
    "compound": "COc1cc(OC)c2c(=O)c(-c3ccc4c(c3)OCO4)coc2c1",
    "measuredQuantity": "activity change, positive = activation",
    "reportedResult": "inactive"
  },
  {
    "compound": "CN(C)C(=O)[C@@H]1C[C@H]1[C@@H](NC(=O)OCc1ccccc1)c1ccccc1",
    "measuredQuantity": "activity change, positive = activation",
    "reportedResult": "inactive"
  },
  {
    "compound": "COC(=O)NC(/C(C(=O)OC)=C(\\C)NCc1ccccc1)c1ccccc1 (stereo unspecified)",
    "measuredQuantity": "activity change, positive = activation",
    "reportedResult": "-30.2% [at 11.4 µM] (inactive)"
  },
  {
    "compound": "CC1(C)C=Cc2c(cc3occ(-c4ccc5c(c4)OCO5)c(=O)c3c2O)O1",
    "measuredQuantity": "activity change, positive = activation",
    "reportedResult": "inactive"
  },
  {
    "compound": "CCNC(=O)[C@H](C)/C=C/C(NC(=O)OCc1ccccc1)c1ccc(C(=O)OC)cc1 (stereo partly specified)",
    "measuredQuantity": "activity change, positive = activation",
    "reportedResult": "inactive"
  },
  {
    "compound": "CC(C)CN1CCc2nc(-c3ccccc3)c3c(c2C1)COC(C)C3 (stereo unspecified)",
    "measuredQuantity": "activity change, positive = activation",
    "reportedResult": "-40.3% [at 11.4 µM] (inactive)"
  },
  {
    "compound": "FC(F)(F)c1ccc(C2[C@H]3CN(Cc4cccnc4)[C@H](c4ccccc4)C34CC2(c2cccnc2)C4)cc1 (stereo partly specified)",
    "measuredQuantity": "activity change, positive = activation",
    "reportedResult": "inactive"
  },
  {
    "compound": "CC(Cc1ccccc1)C(=O)NCCc1c[nH]c2ccccc12 (stereo unspecified)",
    "measuredQuantity": "activity change, positive = activation",
    "reportedResult": "inactive"
  },
  {
    "compound": "COC(=O)c1ccc(C(/C=C/[C@@H](C)C(=O)NCCN2CCCC2)NC(=O)OCc2ccccc2)cc1 (stereo partly specified)",
    "measuredQuantity": "activity change, positive = activation",
    "reportedResult": "inactive"
  },
  {
    "compound": "Nc1cc(=O)[nH]c(=O)n1CC1CC1",
    "measuredQuantity": "activity change, positive = activation",
    "reportedResult": "inactive"
  },
  {
    "compound": "COc1cc(OC)c2c(=O)c(-c3ccccc3)coc2c1",
    "measuredQuantity": "activity change, positive = activation",
    "reportedResult": "inactive"
  },
  {
    "compound": "CCCCCCCC#Cc1ccccc1/C=N/S(=O)c1ccc(C)cc1 (stereo unspecified)",
    "measuredQuantity": "activity change, positive = activation",
    "reportedResult": "-65.3% [at 11.4 µM] (inactive)"
  },
  {
    "compound": "COC(=O)[C@@H]1C[C@@]2(O)[C@@H](O)[C@@H](O)[C@@H](O)C[C@H]2N1Cc1cc(OC)cc(OC)c1",
    "measuredQuantity": "activity change, positive = activation",
    "reportedResult": "inactive"
  },
  {
    "compound": "CCCCCCC#CC1C=CC(OC(=O)OCC)C(COC(=O)OCC)O1 (stereo unspecified)",
    "measuredQuantity": "activity change, positive = activation",
    "reportedResult": "-78% [at 11.4 µM] (inactive)"
  },
  {
    "compound": "CCC/C=C(\\CCC)C(NS(C)(=O)=O)c1ccccc1 (stereo unspecified)",
    "measuredQuantity": "activity change, positive = activation",
    "reportedResult": "inactive"
  },
  {
    "compound": "CC(C)NC(=O)[C@@H]1C[C@H]1[C@@H](NC(=O)OCc1ccccc1)c1ccccc1",
    "measuredQuantity": "activity change, positive = activation",
    "reportedResult": "inactive"
  },
  {
    "compound": "CCCNC(=O)OC[C@@H]1O[C@H](CCO/N=C(\\C)CCN2CCc3nc(CC)c(CC)cc3C2)C=C[C@@H]1Oc1ccc(OC)cc1",
    "measuredQuantity": "activity change, positive = activation",
    "reportedResult": "-86.1% [at 11.4 µM] (inactive)"
  },
  {
    "compound": "CCC1=C(OC(=O)N(CC)CC)N2C(=O)OC(=NCCOC)[C@]2(Cc2ccccc2)[C@H]2C1=CC[C@H]1C(=O)NC(=O)[C@H]12",
    "measuredQuantity": "activity change, positive = activation",
    "reportedResult": "inactive"
  },
  {
    "compound": "O=C(/C=C/c1ccc2c(c1)OCO2)c1cccs1",
    "measuredQuantity": "activity change, positive = activation",
    "reportedResult": "inactive"
  },
  {
    "compound": "Cc1ccc(S(=O)(=O)N[C@H]2COC(=O)CC=C[C@@H](C)[C@H]3C=C[C@H](O)[C@@H](COC(=O)CC=C[C@H]2C)O3)cc1",
    "measuredQuantity": "activity change, positive = activation",
    "reportedResult": "-86.3% [at 11.4 µM] (inactive)"
  },
  {
    "compound": "COC(=O)[C@@H]1C[C@H]2CC[C@H](O)C[C@H]2N1Cc1ccccc1OS(=O)(=O)c1ccc(C)cc1",
    "measuredQuantity": "activity change, positive = activation",
    "reportedResult": "inactive"
  },
  {
    "compound": "COC(=O)C/C=C/C(C)C(OCc1cccc(Br)c1)C(C)C(OC)C1CCCCC1 (stereo unspecified)",
    "measuredQuantity": "activity change, positive = activation",
    "reportedResult": "-58% [at 11.4 µM] (inactive)"
  },
  {
    "compound": "CC(=O)N1CC=CC1(CC(C)C)C(=O)NCC1CC1 (stereo unspecified)",
    "measuredQuantity": "activity change, positive = activation",
    "reportedResult": "inactive"
  },
  {
    "compound": "C[C@@H](c1ccccc1)N1C(=O)[C@H]2[C@H]3[C@H](O)[C@H](O)C/C(=N/OCc4ccccc4)[C@H]3CC[C@@H]2C1=O",
    "measuredQuantity": "activity change, positive = activation",
    "reportedResult": "-40.9% [at 11.4 µM] (inactive)"
  },
  {
    "compound": "C[C@]1(C(=O)NCCc2c[nH]c3ccccc23)C=C[C@@H](Cc2ccccc2)N1C(=O)c1ccccc1",
    "measuredQuantity": "activity change, positive = activation",
    "reportedResult": "inactive"
  },
  {
    "compound": "CCC[C@@H]1C[C@@]1(CCC)[C@@H](NC(=O)c1ccccc1)c1ccc(C(=O)OC)cc1",
    "measuredQuantity": "activity change, positive = activation",
    "reportedResult": "inactive"
  },
  {
    "compound": "CCCNC(=O)OC[C@H]1O[C@@H](CCO/N=C\\[C@@H](NS(=O)(=O)c2ccc(C)cc2)[C@H](C)/C=C\\CC(=O)OC)C=C[C@@H]1Oc1ccc(OC)cc1",
    "measuredQuantity": "activity change, positive = activation",
    "reportedResult": "-106% [at 11.4 µM] (inactive)"
  },
  {
    "compound": "Cc1ccc(S(=O)(=O)N[C@@H](CCc2ccccc2)CC(=O)C(C)(C)C)cc1",
    "measuredQuantity": "activity change, positive = activation",
    "reportedResult": "-96.1% [at 11.4 µM] (inactive)"
  },
  {
    "compound": "O=C1OC(C2=CCCCC2)=NC12CC2",
    "measuredQuantity": "activity change, positive = activation",
    "reportedResult": "-40.2% [at 11.4 µM] (inactive)"
  }
]
